molecular target: POS-1 (Caenorhabditis elegans) binding to mex-3 RNA; test: C. elegans POS-1 RNA interaction disruptors – biochemical, fluorescence polarization, cherry-picked samples, set 2, counter-screen for MEX-5 RNA-binding inhibitor project, dose response (AID 493130); settings: POS-1/mex-3 RNA fluorescence polarization, 1 h; at 10 µM (top of the series);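 note: POS-1 as maltose binding protein fusion made in E. coli with FITC RNA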
Records with an inconclusive call do not appear. Activity calls are given as the source filed them.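 Rule for the calls: active = signal-lowering compounds whose fitted half-maximal concentration is at most ten times their highest tested dose; inconclusive = flat fit between -30 and -70%, or poor fit; inactive = flat within 30%, signal rising, or potency beyond limit.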
RECORDED_METRIC: activity change, negative = inhibition

O=C(O)c1cc(Oc2ccc(C(F)(F)F)cc2Cl)ccc1[N+](=O)[O-]
inactive
Cc1ccc(C(=O)N/N=C\c2cc(Br)c(Br)o2)cn1
inactive
Cc1cc(/C=C(\C#N)c2nc3ccccc3[nH]2)c(C)n1C
inactive
